Origin of measurements: paper PMC11206525

tested on: non-malignant breast epithelial cell line MCF-10A; experiment: MTT cytotoxicity assay, non-malignant MCF-10A cells; format: cell-based, human; settings: Homo sapiens, read-out: IC50 (Inhibitory Concentration 50%) ± SD at 48 h, 48 h
readout: IC50 (µM)
Entry rule: numbers only, all in µM.

# input Would you mind telling me what IC50 value was observed for C=CCSC(=S)N/N=C(\C)c1ccccc1O [H2L^1] ?
# output 62.9

###

tested on: human breast cancer cell line MCF-7; experiment: MTT cytotoxicity assay, breast cancer MCF-7 cells; format: cell-based; conditions: Homo sapiens, MCF7, read-out: IC50 (Inhibitory Concentration 50%) ± SD at 48 h; MCF-7, MTT, 48 h
readout: IC50 (µM)
Entry rule: numbers only, all in µM.

# input Would you mind telling me what IC50 value was observed for C=CCSC(=S)N/N=C(\C)c1ccccc1O [H2L^1] ?
# output 87.7

###

tested on: human breast cancer cell line MCF-7; experiment: MTT cytotoxicity assay, breast cancer MCF-7 cells; assay type: cell-based; conditions: Homo sapiens, MCF7, read-out: IC50 (Inhibitory Concentration 50%) ± SD at 24 h; MCF-7, MTT, 24 h
readout: pIC50
Schema: pIC50 number; meaning minus log10 of the concentration expressed in molar units.

# input Would you mind telling me what pIC50 value was observed for C=CCSC(=S)N/N=C(\C)c1ccccc1O ?
# output 4.05
